Measured values drawn from paper PMC12102759 for this set.

B1: PAIP1 peptide 126-141 (Polyadenylate-binding protein-interacting protein 1), 16-mer library wild type / PABPC1 PABC (PABPC1 PABC domain, residues 544-623) (parent)
chain 1: SKLSVNAPEFYPSGYS
chain 2: PLTASMLASAPPQEQKQMLGERLFPLIQAMHPTLAGKITGMLLEIDNSELLHMLESPESLRSKVDEAVAVLQAHQAKEAA

variants of: B1; assay: proteomic peptide phage display deep mutational scan (ProP-PD DMS): M13 P8 16-mer library selected against immobilised GST-tagged bait for four days (rounds), NGS of the eluted pools per day and pseudo-replica; conditions: with PABPC1 PABC (PABPC1 PABC domain, residues 544-623); bait immobilised on MaxiSorp plates (10 µg), library pre-cleared on GST, 2 h binding at 4 °C, five washes; one round per day, days 1-4; value from days 2 and 3; keep out of graded; scale: average fractional NGS count over selection days 2 and 3
Grouping by measured screen value is done with the following cut points: range A (below 0.0002), range B (0.0002 to below 0.0005), range C (0.0005 or more)

- residueString: "chain 1 SKLSVNAPEFYPEGYS [chain 1 S13E]"
  assignedLabel: "range A"
- residueString: "chain 1 SKLSVNQPEFYPSGYS [chain 1 A7Q]"
  assignedLabel: "range C"
- residueString: "chain 1 SKLSVNAPEFYPSGWS [chain 1 Y15W]"
  assignedLabel: "range B"
- residueString: "chain 1 SKLSANAPEFYPSGYS [chain 1 V5A]"
  assignedLabel: "range B"
- residueString: "chain 1 SKLSVNAPEFYPSGTS [chain 1 Y15T]"
  assignedLabel: "range B"
- residueString: "chain 1 SKLSVNLPEFYPSGYS [chain 1 A7L]"
  assignedLabel: "range A"
- residueString: "chain 1 SKLSVNAPPFYPSGYS [chain 1 E9P]"
  assignedLabel: "range C"
- residueString: "chain 1 SKLSVNAPEFYPSGDS [chain 1 Y15D]"
  assignedLabel: "range C"
- residueString: "chain 1 SKLSVNAPEFYESGYS [chain 1 P12E]"
  assignedLabel: "range B"
- residueString: "chain 1 SFLSVNAPEFYPSGYS [chain 1 K2F]"
  assignedLabel: "range B"
- residueString: "chain 1 SKLSVNAPEFMPSGYS [chain 1 Y11M]"
  assignedLabel: "range C"
- residueString: "chain 1 SKLSVNAFEFYPSGYS [chain 1 P8F]"
  assignedLabel: "range A"
- residueString: "chain 1 SKLSVIAPEFYPSGYS [chain 1 N6I]"
  assignedLabel: "range C"
- residueString: "chain 1 SKLSVNAPEFYPPGYS [chain 1 S13P]"
  assignedLabel: "range A"
- residueString: "chain 1 SKLSVNAPVFYPSGYS [chain 1 E9V]"
  assignedLabel: "range A"
- residueString: "chain 1 SKLSVWAPEFYPSGYS [chain 1 N6W]"
  assignedLabel: "range C"
- residueString: "chain 1 SKLSVNAPEFYPSGNS [chain 1 Y15N]"
  assignedLabel: "range B"
- residueString: "chain 1 SKLSVNAPEFTPSGYS [chain 1 Y11T]"
  assignedLabel: "range A"
- residueString: "chain 1 SKLSVNAPEFYPSKYS [chain 1 G14K]"
  assignedLabel: "range A"
- residueString: "chain 1 SKLSVFAPEFYPSGYS [chain 1 N6F]"
  assignedLabel: "range B"
- residueString: "chain 1 SNLSVNAPEFYPSGYS [chain 1 K2N]"
  assignedLabel: "range B"
- residueString: "chain 1 RKLSVNAPEFYPSGYS [chain 1 S1R]"
  assignedLabel: "range A"
- residueString: "chain 1 SKLSVNADEFYPSGYS [chain 1 P8D]"
  assignedLabel: "range B"
- residueString: "chain 1 SKLSVNAPNFYPSGYS [chain 1 E9N]"
  assignedLabel: "range C"
- residueString: "chain 1 SKLSVNAPEVYPSGYS [chain 1 F10V]"
  assignedLabel: "range A"
- residueString: "chain 1 SKLSHNAPEFYPSGYS [chain 1 V5H]"
  assignedLabel: "range C"
- residueString: "chain 1 SKISVNAPEFYPSGYS [chain 1 L3I]"
  assignedLabel: "range B"
- residueString: "chain 1 SKLNVNAPEFYPSGYS [chain 1 S4N]"
  assignedLabel: "range A"
- residueString: "chain 1 SKLYVNAPEFYPSGYS [chain 1 S4Y]"
  assignedLabel: "range B"
- residueString: "chain 1 SKLSVTAPEFYPSGYS [chain 1 N6T]"
  assignedLabel: "range B"
- residueString: "chain 1 SKLSVNAPEFSPSGYS [chain 1 Y11S]"
  assignedLabel: "range B"
- residueString: "chain 1 HKLSVNAPEFYPSGYS [chain 1 S1H]"
  assignedLabel: "range B"
- residueString: "chain 1 SKLSVNAPEFYPSGFS [chain 1 Y15F]"
  assignedLabel: "range C"
- residueString: "chain 1 SKLPVNAPEFYPSGYS [chain 1 S4P]"
  assignedLabel: "range C"
- residueString: "chain 1 SKLSSNAPEFYPSGYS [chain 1 V5S]"
  assignedLabel: "range C"
- residueString: "chain 1 SKLSVNAPEFVPSGYS [chain 1 Y11V]"
  assignedLabel: "range C"
- residueString: "chain 1 SYLSVNAPEFYPSGYS [chain 1 K2Y]"
  assignedLabel: "range A"
- residueString: "chain 1 SKFSVNAPEFYPSGYS [chain 1 L3F]"
  assignedLabel: "range C"
- residueString: "chain 1 SKLSVNAPEFYISGYS [chain 1 P12I]"
  assignedLabel: "range C"
- residueString: "chain 1 SKLDVNAPEFYPSGYS [chain 1 S4D]"
  assignedLabel: "range A"
